- experimental.target: DR7 (DRB1*0701) (Homo sapiens, UniProt P01903+P01911, A100R/A102G/A103Q/D57E/D86V/E43K/F76Y/K127E/L162R/M171V/P40G/Q125H/Q99D/R33Q/R42Y/R54Q/S133A/S66F/T210M/V115G/Y107V/Y59L/Y89S)
- measurement.protocol: biochemical
- Assay type: binding
No end group written: not given here.
experimental.endpoint: pIC50
A value of pIC50 is the negative decimal logarithm of a concentration given in moles per litre.

As a guide, the following entries are already answered.
{"record.sequence": "DDRWPYLHSRLVVFT [Peptide 89.0058]", "measured.number": 7.17}
{"record.sequence": "KTLIKPATLYAHIQC [Peptide 89.0083]", "measured.number": 6.51}
{"record.sequence": "GHQVVPPMAVSKAKA [Peptide 90.0011]", "measured.number": 5.20}

Request: Quick check: pIC50 of KSLFGMSLMKFLQGS [Peptide 89.0020] ?
Response: 7.68

Request: Same question for GLYYWCDGEKIYFVK [Peptide 90.0226] please.
Response: 5.31

Request: Queued: DSDIAYYYAQLADSN [Peptide 89.0071]
Response: 5.38

Request: Same for WKLIRMECALLYTAK [Peptide 90.0199]
Response: 5.50
